Entry source: patent US20220281831A1

Molecular target: His-tagged CRBN-DDB1 complex (Homo sapiens, UniProt Q96SW2)
Sequence (Q96SW2 whole entry): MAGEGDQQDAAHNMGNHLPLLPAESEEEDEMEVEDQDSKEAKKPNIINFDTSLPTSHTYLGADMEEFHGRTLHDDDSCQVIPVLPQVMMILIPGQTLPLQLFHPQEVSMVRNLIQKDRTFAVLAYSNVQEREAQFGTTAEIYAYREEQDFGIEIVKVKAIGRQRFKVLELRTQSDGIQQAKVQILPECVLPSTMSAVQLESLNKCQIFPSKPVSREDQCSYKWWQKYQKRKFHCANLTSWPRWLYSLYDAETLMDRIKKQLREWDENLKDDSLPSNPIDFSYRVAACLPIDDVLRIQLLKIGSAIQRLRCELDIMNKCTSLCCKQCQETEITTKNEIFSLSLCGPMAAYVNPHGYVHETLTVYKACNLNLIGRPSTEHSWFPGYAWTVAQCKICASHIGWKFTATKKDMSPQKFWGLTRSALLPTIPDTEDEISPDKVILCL
Sequence (Q16531 whole entry partner): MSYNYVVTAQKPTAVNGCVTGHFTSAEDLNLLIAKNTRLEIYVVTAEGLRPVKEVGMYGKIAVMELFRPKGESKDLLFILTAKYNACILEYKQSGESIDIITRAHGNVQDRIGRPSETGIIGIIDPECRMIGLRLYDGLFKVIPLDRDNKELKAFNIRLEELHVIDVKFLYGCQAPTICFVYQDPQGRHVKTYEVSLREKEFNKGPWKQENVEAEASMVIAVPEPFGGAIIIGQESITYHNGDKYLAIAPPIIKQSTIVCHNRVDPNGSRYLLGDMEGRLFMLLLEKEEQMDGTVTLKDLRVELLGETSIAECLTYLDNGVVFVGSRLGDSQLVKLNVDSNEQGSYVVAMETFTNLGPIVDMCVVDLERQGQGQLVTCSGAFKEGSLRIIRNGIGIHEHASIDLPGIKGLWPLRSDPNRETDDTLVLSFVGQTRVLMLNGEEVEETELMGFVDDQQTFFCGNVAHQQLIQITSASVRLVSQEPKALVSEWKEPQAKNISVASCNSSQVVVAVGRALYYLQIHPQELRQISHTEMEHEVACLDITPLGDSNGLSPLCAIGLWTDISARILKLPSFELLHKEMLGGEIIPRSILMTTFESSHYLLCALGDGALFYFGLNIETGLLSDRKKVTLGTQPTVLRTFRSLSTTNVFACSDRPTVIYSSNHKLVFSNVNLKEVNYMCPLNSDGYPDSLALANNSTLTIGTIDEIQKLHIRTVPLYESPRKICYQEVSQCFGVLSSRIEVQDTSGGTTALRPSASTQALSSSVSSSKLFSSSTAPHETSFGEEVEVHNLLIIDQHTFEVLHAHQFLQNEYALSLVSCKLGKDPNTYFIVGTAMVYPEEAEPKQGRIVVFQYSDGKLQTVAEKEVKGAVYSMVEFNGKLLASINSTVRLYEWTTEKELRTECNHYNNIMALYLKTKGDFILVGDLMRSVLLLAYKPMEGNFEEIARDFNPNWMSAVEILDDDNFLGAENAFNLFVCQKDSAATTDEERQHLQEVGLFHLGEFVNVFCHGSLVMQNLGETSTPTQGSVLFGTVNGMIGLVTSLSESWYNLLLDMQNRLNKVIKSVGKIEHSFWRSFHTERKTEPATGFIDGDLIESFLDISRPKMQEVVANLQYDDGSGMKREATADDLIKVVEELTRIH
Experiment: Time-Resolved Fluorescence Resonance Energy Transfer (TR-FRET / HTRF) CRBN binding assay, displacement of Cy5-labeled thalidomide
Settings: His-CRBN-DDB1, Cy5-thalidomide 8 nM, 1 hour room temperature
pIC50: −log10 of the molar value.
attributeMeasured: pIC50

// solved cases for pIC50 follow
>>> valuemeasured("COc1ccc2cc(N3CCC4(CC3)CC(=O)NC(=O)C4)ccc2c1")
"< 4.00"
>>> valuemeasured("O=C1Cc2cc(F)ccc2C(=O)N1")
"4.52 to 5.00"
>>> valuemeasured("CC(=O)N1C[C@@H]2C(=O)NC(=O)[C@@H]2C1")
"< 4.00"
>>> valuemeasured("O=C1NC(=O)[C@@H]2CN(Cc3cccc(O)c3)C[C@H]12")
"< 4.00"
>>> valuemeasured("O=C1Cc2nccc(Oc3ccccc3)c2C(=O)N1")
"< 4.00"

Now for a further compound.
Tell me the measured pIC50 of "O=C1CC2(CCN(Cc3ccc[nH]3)CC2)CC(=O)N1" , please.
< 4.00
